Origin of measurements: PubChem BioAssay

experiment: probe aDKK1 binding to arrayed compounds – biochemical, biotinylated probe, 635/667 nm fluorescence, primary screen (AID 1099); settings: small-molecule microarray, higher = more signal;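 also: score merges 667nm spot fluorescence with signal to noise across triplicate slides; reference of the scale not given here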
We use -0.03 as the dividing line for composite z-score: on or above the line is class 1, below is class 0.

Answered cases to consult:
CCOC(=O)C[C@H]1[C@H](OC(=O)c2ccc(C(=O)c3ccccc3)cc2)[C@@H](NC(=O)c2ccc(-c3ccccc3)cc2)c2cc(OCCCO)ccc2N1C(=O)Cc1ccc(OC)cc1: class 1
COC(=O)[C@@]1(Cc2ccc(OC)cc2)[C@H]2c3cc(C(=O)N4CCCC4)n(CCO)c3C[C@H]2CN1C(=O)c1ccccc1: class 1
CN(C)CCCCCCNC(=O)[C@@H]1C[C@@H]2C(=O)N3CCC[C@H]3C(=O)N2[C@@H]1c1cccc(OCCO)c1: class 0
COC(=O)[C@@]1(Cc2ccc(OC)cc2)[C@H]2c3cc(C(=O)N4CCCC4)n(CCc4c[nH]c5ccc(OC)cc45)c3C[C@H]2CN1C(=O)c1ccccc1: class 1
CCCNC(=O)[C@@]1(C)c2ccccc2C(=O)N(c2ccc(C)cn2)[C@H]1c1ccc(CO)cc1: class 0

Data request: Textbook exercise: given the entry COc1cc(NN2C(C(O)c3ccc(N(C)C)cc3)C=CC3C(=O)N(c4ccccc4)C(=O)C32)cc(OC)c1OC (stereo not given) , state whether its composite z-score is greater than or equal to -0.03.
Data returned: class 1

Data request: Textbook exercise: given the entry `COc1ccc(C(=O)Nc2ccc(CN3C(=O)[C@]4(O[C@H](CC(=O)N5Cc6ccccc6C[C@H]5CO)[C@@H]([Si](C)(C)c5ccc(OC)cc5)[C@@H]4C)c4ccccc43)cc2)cc1` , state whether its composite z-score is greater than or equal to -0.03.
Data returned: class 0

Data request: Textbook exercise: given the entry C=CCC(OC(C)=O)[C@@H]1[C@@H](N(Cc2ccc(-c3ccccc3)cc2)C(=O)c2ccc(-c3ccccc3)cc2)c2cc(OCCCO)ccc2N1C(=O)c1ccc2ccccc2c1 (stereo not given in full) , state whether its composite z-score is greater than or equal to -0.03.
Data returned: class 0

Data request: Textbook exercise: given the entry `COCC(=C=CC[C@H](O)c1ccc(CO)o1)CCO` , state whether its composite z-score is greater than or equal to -0.03.
Data returned: class 1

Data request: Textbook exercise: given the entry COc1cc(C(O)C2C=CC3C(=O)N(C)C(=O)C3N2Nc2ccccc2)cc(OC)c1OC (stereo not given) , state whether its composite z-score is greater than or equal to -0.03.
Data returned: class 1

Data request: Textbook exercise: given the entry `C=CCN1Cc2ccccc2[C@@H]2OC(c3ccc(OCCCO)cc3)=N[C@]2(CC=C)C1=O` , state whether its composite z-score is greater than or equal to -0.03.
Data returned: class 1

Data request: Textbook exercise: given the entry `CO[C@H]1O[C@H](CO)[C@@H](OC(=O)Nc2ccc(Br)cc2)[C@@H]2OC(=O)[C@@H](Cc3ccccc3)C/C=C/C[C@H](Cc3ccccc3)C(=O)O[C@@H]12` , state whether its composite z-score is greater than or equal to -0.03.
Data returned: class 0

Data request: Textbook exercise: given the entry `COC(=O)C/C=C/C[C@]1(O)C(=O)N(C)c2ccccc21` , state whether its composite z-score is greater than or equal to -0.03.
Data returned: class 0

Data request: Textbook exercise: given the entry `CCCN1C(=O)[C@]2(Cc3ccccc31)N=C(c1ccc(OCCCO)cc1)O[C@@H]2c1ccccc1` , state whether its composite z-score is greater than or equal to -0.03.
Data returned: class 1

###

molecular target: Pro-neuregulin-1, membrane-bound isoform (Homo sapiens); experiment: small molecules binding neuregulin-1 protein – biochemical, small-molecule microarray, fluorescence 635/667, psychiatric disease protein project, primary screen (AID 1075); details: NRG1 binding, 635 nm fluorescence, higher = more signal;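 also: score combines 667 nm spot fluorescence with signal to noise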
observed_property: composite z-score
// print number alone

Illustrative cases are given below, each with its answer.
COC(=O)[C@@]1(Cc2ccc(OC)cc2)[C@H]2c3cc(C(=O)N4CCCC4)n(CCc4c[nH]c5ccc(OC)cc45)c3C[C@H]2CN1C(=O)c1ccccc1: 0.898
CC(C)(C)OC(=O)CC[C@@]1(C(=O)NCC(O)CO)N=C(c2ccc(OCCCO)cc2)O[C@@H]1c1ccccc1CN=[N+]=[N-] (some centres not stated): 1.01
COCCCNC(=O)[C@@H]1c2ccccc2C(=O)N(C(C)C)[C@H]1c1ccc(CO)cc1: 0.576
COC(=O)c1c(CC[C@@H](CO)NC(=O)N2CCC[C@H]2Cn2cc(C3(O)CCCCC3)nn2)oc(C(C)=O)c1C(=O)OC: 1.11
CS(=O)(=O)CCOC(=O)C1=CC(c2ccc(CO)cc2)=CC(C2CC2)N(Cc2sc3ccccc3c2Cl)C=C1C(=O)OCCS(C)(=O)=O (configuration not stated): 1.77
Cc1cc(C)c(C(O)C2C=CC3C(=O)N(c4ccccc4)C(=O)C3N2Nc2ccccc2F)c(C)c1 (configuration not stated): 1.07

Proceeding to the next compound to report its composite z-score.
Data request: Endpoint output: composite z-score of CCCCC(CC)C(O)C1C=CC2C(=O)N(c3ccccc3)C(=O)C2N1Nc1ccc(C#N)cc1 (configuration not stated) . Value?
Data returned: 0.893

###

target: Torsin-1A-interacting protein 2 (Homo sapiens) (UniProt Q8NFQ8); assay: small molecules binding lysate-expressed LULL1 – cell lysate, human LULL1 lysate, 635/667 nm fluorescence, primary screen (AID 1092); settings: small-molecule microarray, hLULL1 lysate binding, 635 nm fluorescence; higher = more signal;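 also: probe is lysate of COS7 cells overexpressing human LULL1; score merges per-feature 667 nm fluorescence with signal-to-noise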
Sequence (Q8NFQ8 whole entry, looked up): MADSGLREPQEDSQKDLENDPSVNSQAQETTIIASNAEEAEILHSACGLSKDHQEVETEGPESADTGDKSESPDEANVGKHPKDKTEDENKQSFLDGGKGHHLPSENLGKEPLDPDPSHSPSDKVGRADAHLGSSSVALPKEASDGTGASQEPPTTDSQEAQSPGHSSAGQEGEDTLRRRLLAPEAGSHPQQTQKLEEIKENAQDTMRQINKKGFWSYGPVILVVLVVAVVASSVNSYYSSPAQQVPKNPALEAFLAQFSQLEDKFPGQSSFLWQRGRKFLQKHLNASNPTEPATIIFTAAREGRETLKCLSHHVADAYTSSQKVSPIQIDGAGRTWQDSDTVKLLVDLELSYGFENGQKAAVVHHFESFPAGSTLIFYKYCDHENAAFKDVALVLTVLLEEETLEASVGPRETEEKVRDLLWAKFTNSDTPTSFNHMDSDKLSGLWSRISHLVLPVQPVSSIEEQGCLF
Here the recorded composite z-score is given for each entry.

Illustrative cases are given below, each with its answer.
CN(C)c1ccc(C(O)C2C=CC3C(=O)NC(=O)C3N2Nc2ccccn2)cc1 (centres undefined): 1.31
C=C(COC)/C(=C/C[C@H](OC(=O)c1ccncc1)c1ccccc1OCCO)c1cc(C(=O)OC)ccc1OC: 2.65
NC(=O)NCC#Cc1ccc2c(c1)[C@]1(C(=O)N2)[C@H](C(=O)N2CCN(c3ncccn3)CC2)[C@H]2C(=O)O[C@H](c3ccccc3)[C@H](c3ccccc3)N2[C@@H]1c1ccc(O)cc1: 0.828

Data request: Endpoint output: composite z-score of `C[N+](C)(C)CCCCCCNC(=O)[C@@H]1C[C@@H]2C(=O)N3CCC[C@H]3C(=O)N2[C@@H]1c1ccc(O)cc1` . Value?
Data returned: 2.9

###

Here the recorded composite z-score is given for each entry.
biological target: Torsin-1A-interacting protein 2 (Homo sapiens) (UniProt Q8NFQ8); assay: small molecules binding lysate-expressed LULL1 – cell lysate, human LULL1 lysate, 635/667 nm fluorescence, primary screen (AID 1092); conditions: small-molecule microarray, hLULL1 lysate binding, 635 nm fluorescence; higher = more signal;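 also: probe is lysate of COS7 cells overexpressing human LULL1; score merges per-feature 667 nm fluorescence with signal-to-noise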
// print number alone

Illustrative cases are given below, each with its answer.
CCOC(=O)C[C@H]1[C@H](OC(=O)c2cc3ccccc3oc2=O)[C@@H](NC(=O)c2ccccc2)c2cc(OCCCO)ccc2N1C(=O)c1ccccc1: -0.098
COc1cccc(C)c1NC(=O)O[C@H]1[C@H](OC(=O)Nc2ccccc2-c2ccccc2)[C@H](OC(=O)Nc2ccccc2-c2ccccc2)[C@@H](OC)O[C@@H]1CO: 3.18

Data request: Endpoint output: composite z-score of `C[N+](C)(C)CCCC[C@@H]1NC(=O)[C@@H]2C[C@H](C(=O)NCCCCCCN)[C@H](c3cccc(OCCO)c3)N2C1=O` . Value?
Data returned: 2.44

###

Here the recorded z-score is given for each entry.
assay: JC-1 mitochondrial signal, unstimulated myeloma cells – cell-based, JC-1 fluorescence, RPMI8226, 24 h, 100 nL compound, profiling panel (AID 1169); conditions: JC-1 mitochondrial potential fluorescence, higher = more signal; also: test concentration not given here
// print number alone

Data request: Endpoint output: z-score of `CN(C)C(=O)[C@]1(CCC(=O)OC(C)(C)C)N=C(c2ccc(OCCCO)cc2)O[C@@H]1c1ccccc1CN=[N+]=[N-]` . Value?
Data returned: 0.124

Data request: Endpoint output: z-score of `COCCOC(=O)N1C(=O)[C@@]2(c3cc(C#CC4(O)CCCCCC4)ccc31)[C@H](c1ccc(O)cc1)N1[C@H](c3ccccc3)[C@H](c3ccccc3)OC(=O)[C@H]1[C@@H]2C(=O)N1CCN(c2ncccn2)CC1` . Value?
Data returned: -0.406

Data request: Endpoint output: z-score of `CCOC(=O)C1=CC[C@@H](c2ccccc2F)N(S(=O)(=O)c2ccc(C)cc2)[C@H]1c1ccccc1` . Value?
Data returned: -0.0368

Data request: Endpoint output: z-score of CCC1=C2CN(Cc3ccccc3)[C@@H](C(=O)Cc3ccccc3)C2C=CCC1 (stereo not given in full) . Value?
Data returned: 0.424

Data request: Endpoint output: z-score of O=C1OCCC/C=C\[C@H]2OC34C=CCN(c5ccc6ccccc6c5)C(=O)[C@H]3N(CCO)C(=O)[C@@H]4C12 (stereo not given in full) . Value?
Data returned: -0.0898

Data request: Endpoint output: z-score of CCCC1(C(=O)OC)C=C2C(=C(C)C(=O)C2C)CN1 (stereo not given) . Value?
Data returned: -0.0212

Data request: Endpoint output: z-score of `COC(=O)[C@@]1(Cc2ccc(F)cc2)[C@H]2c3cc(C(=O)N(C)C)n(CCc4ccc(OC)c(Br)c4)c3C[C@H]2CN1C(=O)c1ccccc1` . Value?
Data returned: -0.812

Data request: Endpoint output: z-score of `COCC(=C=CC[C@H](O)c1ccc(CO)o1)CCO` . Value?
Data returned: -0.495

Data request: Endpoint output: z-score of CCOc1cc(C(O)C2C=CC3C(=O)NC(=O)C3N2Nc2ccc(Cl)cc2Cl)ccc1O (stereo not given) . Value?
Data returned: -0.76

Data request: Endpoint output: z-score of `C=C(COC)/C(=C/C[C@H](OC(=O)c1ccncc1)c1ccc(CO)o1)c1cnc2ccccc2c1` . Value?
Data returned: 0.178
